# Method Summary: yeast display, Sf9 membrane polyspecificity reagent, FACS + sequencing; frameworks hold sequencing errors

{"Residue Sequence": "QVQLVESGGGLVQAGGSLRLSCAASGLTFVYYAMGWYRQAPGKERELLAAISRSGGSTYYADSVKGRFTISRDNAKNTVYLQMNSLKPEDTAVYYCAAEATKWFGVVTMDYWGQGTQVTVSS", "polyreactivity (PSR sort gate)": "high polyreactivity"}
{"Residue Sequence": "QVQIVESGGGLVQAGGSLRLSCAASGSTFKWYAMGWYRQSTGKERQLVAAITSTDSTTYADSLKGRFTISRDNAKNTVYLHMNSLKPEDTAVYYCNRLYYHWYGGLDYWGLGTQVTVSS", "polyreactivity (PSR sort gate)": "high polyreactivity"}
{"Residue Sequence": "QVQLEESGGGLVQAGGSLRLSCAASGSTIPPYAMGWYRQAPRKERELVAAITSGGSTYYADSVKGRFTISRDNAKNTVYLQMNSLKPEDTAVYYCAASWDPWEYDYWGQGTQVTVSS", "polyreactivity (PSR sort gate)": "low polyreactivity"}
{"Residue Sequence": "QDQLVESGGGLVQAGGSLRLSCAASGRFFKWYAMGWYRQAPGKEREFVAGISSSGTSTYYADSVKGRFTISRDNAKKTVSLQRNSLKPEDTAVYYCNKLGSTLDFGYWGQGTQVTVSS", "polyreactivity (PSR sort gate)": "high polyreactivity"}
{"Residue Sequence": "QVQLVESGGGLVQAGGSLRLSCAASGNIFESYGMGWYRQAPGKERELVATINTSSGSTYYADSVKGRFTISRDNAKNTVYLQMNSLKPEDTAVYYCAVEGDYWYVSMYYWGQGTQVTVSS", "polyreactivity (PSR sort gate)": "low polyreactivity"}
{"Residue Sequence": "QVQHVESGGGLVQSGGSHRLSCAASGSTFSDNSLGWYRQAPAKERELVAAISRSGGSTYYADSVNGRFTISRDYAKNTVYLQMNSLIPEDTAVYYCATNRVLTGYDSWGQGTQVTVSS", "polyreactivity (PSR sort gate)": "high polyreactivity"}
{"Residue Sequence": "QVQLVESGGGLVQAGGSLRLRCAASGSTFYRYALGWYRQAPGKERELVAVITSGGGTYSADSVKGRFSISRDNAKNTVYLQLNSRKPEDTAVYDCAARYLRTRNYQYDYWGQGTQVTVSS", "polyreactivity (PSR sort gate)": "high polyreactivity"}
{"Residue Sequence": "QVQLVESGGGLVQAGGSLRLSCAASGITSYGYAMGWYIQAPGKERELVAAISRSGGTTYYADSVKGRFTISRDNAKNTVYLQMNSLKPEDTAVYYCALGKSHRGGGVSKFNYWGQGTQVTVSS", "polyreactivity (PSR sort gate)": "low polyreactivity"}
{"Residue Sequence": "QVQLVESGGGLVQAGGSLRLSCAASGFIFYRNTMGWYRQAPGKEREFVAAIRWRGGSTYYADSVKGRFTISRDNAKNTFYLQLNSVKPEDTAVYYCAADTRPGYSGFEYWGQGTQVTVSS", "polyreactivity (PSR sort gate)": "high polyreactivity"}
{"Residue Sequence": "QVQLVESGGGLVQAGGSLRLSCAASGSIFLYYAMGWYRQAPGKERELVAGIRRGGRTNYADSVKGRFTISRDNAKNTVYLQMNSLKPEDTAVYYCAKGGYWGQGTQVTVSS", "polyreactivity (PSR sort gate)": "high polyreactivity"}
{"Residue Sequence": "QVQLVESGGGLVQAGGSLRLICAASGFTFRSYAMGWYRQAPGKERELVAAITSTGGRTYYADSVKGRFTISRDNAKNTVYLQMNSLKPEDTAVYYCAAGRKHYAPVHFGYWGQGTQVTVSS", "polyreactivity (PSR sort gate)": "high polyreactivity"}
{"Residue Sequence": "QVQLVESGGGLVQAGGSLRLSCAASGRTFWLYAMGWYRQAPGKARELVASITRDGTSTYYADSVKGRFTISRDNPKNTVYLQMNSLKPEDTAVYYCAAVYHSKSRTIYWGQGTQVTVSS", "polyreactivity (PSR sort gate)": "high polyreactivity"}
{"Residue Sequence": "QVQLVESGGGLVQAGGSLRLSCAASGRIFKGNAMGWYRQAPGKEREFVAAISQRGGSTYYADSVKGRFTISRDNAKNTVYLQMNSLKPEDTAVYYCAAVRKSVGVKYDYWGQGTQVTVSS", "polyreactivity (PSR sort gate)": "high polyreactivity"}
{"Residue Sequence": "QVQLVESGGGLVHAGGSLRLTCAASGRTYRNGMGWYRQAPGKERELVAAISVSGTRTYYADSVKGRFTISRDNAKNTVYLQMNSLKPEDTAVYYCNADLSPTADDELDYRLVRDDYWGQGTQVTVSS", "polyreactivity (PSR sort gate)": "low polyreactivity"}
{"Residue Sequence": "QGQLVESGGGLVQAGGSLRLSCAASGSIFVYNVMGWYRQEPGKATELVADISKTAGRTYSADSVKGRFTISRDNAKNTVYLQINSLKPEDTAVSYCAVGNKRDAYYQYSSYGYWGQGTQVTVSS", "polyreactivity (PSR sort gate)": "low polyreactivity"}
{"Residue Sequence": "QVQLVESGGGLVQAGGSLRLSCAASGRLFYSYAMGWYRQAPGKERELVAAIGRGGGTTYADSVKGRFTISRDNAKNTVYLQMNSLKPEDTAVYYCAADWHSTPRHTMDYWGQGTQVTVSS", "polyreactivity (PSR sort gate)": "low polyreactivity"}
{"Residue Sequence": "QVQLVESGGGLVQAGGSLRLSCAASGIIFIYNGMGWYRQAPGKERELVATINWSGGNTYYADSVKGRFTISRDNAKNTVSLQMNSLKPEDTAVYDCAVRGSRFWGYDYWGQGTQVTVSS", "polyreactivity (PSR sort gate)": "low polyreactivity"}
{"Residue Sequence": "QVQLVESGGGLVQAGGSLRLSCAASGITFDHYTMGWYRHAPGKEREFVADITGSGVRTYYADSVKGRFTISRDNAKNTVYLQMNCLKAEDNAVYYCAKRRTLYYSGKLGYWGQGTQVTVSS", "polyreactivity (PSR sort gate)": "high polyreactivity"}
{"Residue Sequence": "QVQLVESGGGLVQAGGRLRLSCAASGRIFRYNAMGWYRQAPGKERELVASITSAGSTNYADSVKGRFTISRDNAKITVYLLMNSLKPEDTEVYYCNKRRAYGYYLFDYWGQGTQVTVSS", "polyreactivity (PSR sort gate)": "high polyreactivity"}
{"Residue Sequence": "QVQLVESGGGLVQAGGSLRLSCAASGSTFPVYVMGWYRPAPGKERELVAAITRSGGSTYYADSVKGRFTISRDNAKNTVYLQMNSLKPEDTAVYYCNKDVWDGYDWPEFDYWGQGTQVTVSS", "polyreactivity (PSR sort gate)": "low polyreactivity"}
{"Residue Sequence": "QVQLVESGGGLVQAGGSLRLTCAASGSIFPKNAIGWYRQAPGKERQLVAGITSRTGRTYYADSVKGRFTISRDNAENTVYLQMNSLKPEDTAVYYCAARNPSGKGRYDYWGQGSQVTVSS", "polyreactivity (PSR sort gate)": "high polyreactivity"}

----------
# Method Summary: yeast display, Sf9 membrane polyspecificity reagent, FACS + sequencing; frameworks hold sequencing errors

{"Residue Sequence": "QVQLVESGGGLVQAGGSGRLSCAASGRIFAGYAMGWYIQAPGKERELVAAISSSGGSTYYSDSVKGRFTISRDNAKNSVYLQMNSLKPEDTAVYYCADRGKRNTPQRFYYWGQGTQVTVSS", "polyreactivity (PSR sort gate)": "high polyreactivity"}
{"Residue Sequence": "QVQLVESGGGLVQAGGSLRLSCAASGFTFRGYDMGWYRQAPGKERELVATISSGGRTYYADSVKGRFTISRDNAKNTVYLQMNSLKPEDTAVYYCAAPRFGRLAFDFWGQGSQVTVSS", "polyreactivity (PSR sort gate)": "low polyreactivity"}
{"Residue Sequence": "QVQLVESGGGLVQAGGSLRLSCAASGSTLPANAMGWYRQAPGKERELVAAITITTDGSTYYADSVKGRFTISRDNAKNTVYLQMNSLKAEDTAVYYCAVARYRYHIRKMGYWGQGTQVTVSS", "polyreactivity (PSR sort gate)": "low polyreactivity"}
{"Residue Sequence": "QVQLVESGGGLVQAGGSLRLSCAASGGIFSVYAMGWYRQPPGKERELVASITVSGGSTSYADSVKGRFTISRDTAKNTVYLQMNSLKPEDTAVYYCNTDFGQAHTLSWYEDMDYWGQGTQVTVSS", "polyreactivity (PSR sort gate)": "low polyreactivity"}
{"Residue Sequence": "QVHLVESGGGLVQAGGSLRLSCAASGSILARYAMGWYRQAPRKERELVASITTSGDSTYYADSVKGRFTISRDNAKNTVSLQMNSLIPEDTAVYYCARRRWGWGYQHFPYYYWGQGTQVTVSS", "polyreactivity (PSR sort gate)": "high polyreactivity"}

----------
# Method Summary: yeast display, Sf9 membrane polyspecificity reagent, FACS + sequencing; frameworks hold sequencing errors

{"Residue Sequence": "QVQLVESGGVLVQAGGSLRLSCAASGYIFYPYAMGWYRQAPGKERELVAAISGSGSGTYYADSVKGRFTISRDNAKNTVYLQMNSLKPEDTAVYYCAKYLYDNVWMDYWGQGTQVTVSS", "polyreactivity (PSR sort gate)": "low polyreactivity"}
{"Residue Sequence": "QVQLVESGGGLVQAGGSLRLSCAASGSIFYISAMGWYRQAPGKERELVAAISWIDDTTYYADSVKGRFTISRDNAKNTVYLQMNSLKPEDTAVYYCAAELENVYAGGQMDYWGQGTQVTVSS", "polyreactivity (PSR sort gate)": "high polyreactivity"}
{"Residue Sequence": "QVQLVESGGGLVQAGGSLRLSCAASGRIFGINAMGWYRQAPGKERELVAAITWSGDGTYYADSVKGRFTISRDNAKNTVYLQMNSLKPEDTAVYYCARYDYWGHGTQVTVSS", "polyreactivity (PSR sort gate)": "low polyreactivity"}
{"Residue Sequence": "QVQLVESGGGLVQAGGSLRISCAASGSIFYLYTIGWYRQAPGKERELVAAITSGGSTNYADSVKGRFTISRDNAKNTVYLQMNSLKPEDTAVYYCAAEYFDWWVTYDYWGQGTQVTVSS", "polyreactivity (PSR sort gate)": "high polyreactivity"}
{"Residue Sequence": "QVQLVESGGGLVQAGGILRLSCDASGLIFGPYTMGWYRQAPGKERELVAAISYGGVSTYYADSVKGRFTISRDNAKNTVYLQMNSLKPEDTAVYYCARGDSTRVIRPSAREYDYWGQGTQVTVSS", "polyreactivity (PSR sort gate)": "low polyreactivity"}
